- System: H2023
- test_details: MTT cell proliferation assay
- Type: cell-based
- experimental_conditions: H2023, 72 h, MTT; read-out: IC50
measurement_type: IC50 (µM)
# unit: µM | format: bare number

Prompt: Provide measured IC50 value, entry: O=C(c1cccc(Cc2n[nH]c(=O)c3ccccc23)c1)N1CCN([N+]([O-])=NOc2ccc([N+](=O)[O-])cc2[N+](=O)[O-])CC1
Completion: 19.4
